Origin of measurements: the supplement of paper PMC6757056

Can you tell me FACS-Seq fitted mean (log10) for the items I'm about to list?
B1: library; a variant is named by its letters at N, in order (parent)
chain: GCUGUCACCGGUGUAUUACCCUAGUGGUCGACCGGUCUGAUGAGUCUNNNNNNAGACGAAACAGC

Variants of: B1
PROTOCOL TEXT: FACS-Seq fitted mean relative fluorescence mCherry/BFP with ligand (log10 relative fluorescence); ligand: hypoxanthine (xanthine aptamer); ligand concentration (+) FACS-Seq: 5 mM; higher = higher reporter protein expression
PARTICULARS: HEK293T, ligand present: yes
One number for each entry.

Below: 3 variants and their reported FACS-Seq fitted mean (log10).
| VARIANT | FACS-Seq fitted mean (log10) |
| --- | --- |
| GUGCGG | 0.585 |
| AUACCC | 0.292 |
| AAAUCA | 0.629 |

Give FACS-Seq fitted mean (log10) for all variants that follow.
1. GGUUAC
2. AGUCUG
3. UUCACA

1. 0.276
2. 0.414
3. 0.58

Batch request: FACS-Seq fitted mean (log10) for each of the following variants.
1. GAAUCA
2. GGUAGU
3. GCAUAA
4. AGCUGA
5. UUAACG

0.46
0.507
0.626
0.0306
0.41

For every item in the list below, what is its measured FACS-Seq fitted mean (log10)?
1. AGCAAU
2. GCUGAU
3. AUGCGG
4. UCGGUA
5. GAAGAA
6. CGGGGC
7. GGUUUA

1. 0.608
2. 0.376
3. 0.504
4. 0.485
5. 0.525
6. 0.628
7. 0.329
